Reference source: patent US20260242391A1

Catalogue of compounds with associated IC50
Method Notes: in vitro
Run Parameters: human
Kindly provide the numeric value in µM only, without the unit symbol.

Here are 4 compounds together with their reported answers.
| Compound | IC50 [µM] |
| --- | --- |
| CC(C)C(C(=O)O)c1ccc(O[C@H]2O[C@@H]3O[C@@]4(C)CC[C@H]5[C@H](C)CC[C@@H]([C@H]2C)[C@@]35OO4)cc1 (stereo partly drawn) [Compound 146] | 0.8 |
| C[C@H]1[C@H](NC2CS(=O)(=O)C2)O[C@@H]2O[C@@]3(C)CC[C@H]4[C@H](C)CC[C@@H]1[C@@]24OO3 [Compound 52] | 3.55 |
| C[C@H]1[C@H](OCc2ccc(-c3nn[nH]n3)cc2)O[C@@H]2O[C@@]3(C)CC[C@H]4[C@H](C)CC[C@@H]1[C@@]24OO3 [Compound 2] | 0.0585 |
| C[C@H]1[C@H](OCCCc2ccc(C(=O)O)cc2F)O[C@@H]2O[C@@]3(C)CC[C@H]4[C@H](C)CC[C@@H]1[C@@]24OO3 [Compound 174] | 7 |

Any idea what its IC50 is? The compound is C[C@H]1[C@H](OCC#Cc2ccc(C(=O)O)cc2F)O[C@@H]2O[C@@]3(C)CC[C@H]4[C@H](C)CC[C@@H]1[C@@]24OO3 [Compound 166]
1.8

C[C@H]1[C@H](OCc2ccc(C#N)cc2)O[C@@H]2O[C@@]3(C)CC[C@H]4[C@H](C)CC[C@@H]1[C@@]24OO3 [Compound 7] ?
0.192

C[C@H]1[C@@H](OC[C@H]2CC[C@@H](C(=O)NC3CC3)CC2)O[C@@H]2O[C@@]3(C)CC[C@H]4[C@H](C)CC[C@@H]1[C@@]24OO3 [Compound 143] ?
1

C[C@H]1[C@@H](Oc2ccc(CCCCC(=O)O)cc2)O[C@@H]2O[C@@]3(C)CC[C@H]4[C@H](C)CC[C@@H]1[C@@]24OO3 [Compound 72] ?
0.777

C[C@H]1[C@H](NCc2cnn(C)c2)O[C@@H]2O[C@@]3(C)CC[C@H]4[C@H](C)CC[C@@H]1[C@@]24OO3 [Compound 46] ?
4.38

Cc1cc(CN[C@@H]2O[C@@H]3O[C@@]4(C)CC[C@H]5[C@H](C)CC[C@@H]([C@H]2C)[C@@]35OO4)cc(C)n1 [Compound 37] ?
0.59

====

Catalogue of compounds with associated log10 of IC50
Method Notes: in vitro
Run Parameters: human
Values reflect log10 of reported IC50 (µM).

| Compound | log10 of IC50 |
| --- | --- |
| C[C@H]1[C@@H](OC(=O)Cn2ccc(C(F)(F)F)n2)O[C@@H]2O[C@@]3(C)CC[C@H]4[C@H](C)CC[C@@H]1[C@@]24OO3 [Compound 145] | -0.96 |
| C[C@H]1[C@@H](OCc2ccc3c(c2)OC(F)(F)O3)O[C@@H]2O[C@@]3(C)CC[C@H]4[C@H](C)CC[C@@H]1[C@@]24OO3 [Compound 1] | -1.97 |
| C[C@H]1[C@@H](Oc2ccc(CC(=O)OC(C)(C)C)cc2)O[C@@H]2O[C@@]3(C)CC[C@H]4[C@H](C)CC[C@@H]1[C@@]24OO3 [Compound 132] | -2.00 |
| C[C@H]1[C@H](N2CCC(C(=O)NC3COC3)CC2)O[C@@H]2O[C@@]3(C)CC[C@H]4[C@H](C)CC[C@@H]1[C@@]24OO3 [Compound 60] | 1.07 |

Any idea what its log10 of IC50 is? The compound is COc1cc(CN[C@@H]2O[C@@H]3O[C@@]4(C)CC[C@H]5[C@H](C)CC[C@@H]([C@H]2C)[C@@]35OO4)ccn1 [Compound 50]
0.69

====

Method Notes: in vitro
Run Parameters: human
Endpoint: pIC50
Reminder that pIC50 means the negative base-10 logarithm of the concentration expressed in mol/L.

| Smiles Text | pIC50 |
| --- | --- |
| C[C@H]1[C@@H](Oc2ccc(C3(C(=O)O)CC3)cc2)O[C@@H]2O[C@@]3(C)CC[C@H]4[C@H](C)CC[C@@H]1[C@@]24OO3 | 5.61 |
| C[C@H]1[C@H](NCCS(C)(=O)=O)O[C@@H]2O[C@@]3(C)CC[C@H]4[C@H](C)CC[C@@H]1[C@@]24OO3 | 6.13 |
| C[C@H]1[C@@H](Oc2ccc(CC(=O)O)c(F)c2F)O[C@@H]2O[C@@]3(C)CC[C@H]4[C@H](C)CC[C@@H]1[C@@]24OO3 | 4.82 |
| C[C@H]1[C@@H](OCc2ccc(S(N)(=O)=O)cc2)O[C@@H]2O[C@@]3(C)CC[C@H]4[C@H](C)CC[C@@H]1[C@@]24OO3 | 5.65 |
| C[C@H]1[C@@H](Oc2ccc(C(=O)N[C@H]3CC[C@@H](C(=O)O)C3)cc2)O[C@@H]2O[C@@]3(C)CC[C@H]4[C@H](C)CC[C@@H]1[C@@]24OO3 | 5.10 |

As a next step, examine the compound that follows.
Any idea what its pIC50 is? The compound is C[C@H]1[C@@H](OC[C@H]2CC[C@@H](CO)CC2)O[C@@H]2O[C@@]3(C)CC[C@H]4[C@H](C)CC[C@@H]1[C@@]24OO3
6.57

====

Catalogue of compounds with associated pIC50
Method Notes: in vitro
Run Parameters: human
pIC50: −log10 of the molar value.

Here are 2 compounds together with their reported answers.
| Compound | pIC50 |
| --- | --- |
| C[C@H]1[C@@H](Oc2ccc(F)c(CC(=O)O)c2)O[C@@H]2O[C@@]3(C)CC[C@H]4[C@H](C)CC[C@@H]1[C@@]24OO3 | < 4.70 |
| C[C@H]1[C@@H](Oc2ccc(CC(=O)O)cc2C(F)(F)F)O[C@@H]2O[C@@]3(C)CC[C@H]4[C@H](C)CC[C@@H]1[C@@]24OO3 | 6.05 |

Any idea what its pIC50 is? The compound is C[C@H]1[C@@H](OCC2(C(=O)O)CCC2)O[C@@H]2O[C@@]3(C)CC[C@H]4[C@H](C)CC[C@@H]1[C@@]24OO3
< 4.70

C[C@H]1[C@@H](OCC(=O)N2CCC(C(=O)O)CC2)O[C@@H]2O[C@@]3(C)CC[C@H]4[C@H](C)CC[C@@H]1[C@@]24OO3 ?
< 4.70

C[C@H]1[C@H](OCCCc2ccc(C(=O)O)cc2)O[C@@H]2O[C@@]3(C)CC[C@H]4[C@H](C)CC[C@@H]1[C@@]24OO3 ?
< 4.70

C[C@H]1[C@@H](Oc2ccc(C3CC(C(=O)O)C3)cc2)O[C@@H]2O[C@@]3(C)CC[C@H]4[C@H](C)CC[C@@H]1[C@@]24OO3 (stereo partly drawn) ?
5.82

====

Catalogue of molecules with associated pEC50
System: HL-60
Method Notes: HL-60 differentiation potency
Assay type: cell-based
Run Parameters: Homo sapiens
Reminder that pEC50 means the negative base-10 logarithm of the concentration expressed in mol/L.

Here are 2 molecules together with their reported answers.
| Molecule | Experimental System | pEC50 |
| --- | --- | --- |
| C[C@H]1[C@@H](O[C@H]2CC[C@@H](C(=O)N[C@H](C(=O)O)c3ccccc3)CC2)O[C@@H]2O[C@@]3(C)CC[C@H]4[C@H](C)CC[C@@H]1[C@@]24OO3 [Compound 189] | HL-60 | 5.72 |
| C[C@H]1[C@@H](OCc2ccc(-c3nnc(CC(=O)O)o3)cc2)O[C@@H]2O[C@@]3(C)CC[C@H]4[C@H](C)CC[C@@H]1[C@@]24OO3 [Compound 304] | HL-60 | 7.95 |

As a next step, examine the molecule that follows.
Any idea what its pEC50 is? The molecule is C[C@H]1[C@@H](OCC(=O)N2C[C@@H]3CCC[C@@H]3[C@H]2C(=O)O)O[C@@H]2O[C@@]3(C)CC[C@H]4[C@H](C)CC[C@@H]1[C@@]24OO3 [Compound 191]
5.01

====

Tested on: HL-60
Method Notes: HL-60 differentiation potency
Assay type: cell-based
Run Parameters: Homo sapiens
Endpoint: EC50

Here are 2 compounds together with their reported answers.
| Compound | Endpoint | Observed |
| --- | --- | --- |
| C[C@H]1[C@@H](Oc2ccc(CC(=O)NC34CC(C(=O)O)(C3)C4)cc2)O[C@@H]2O[C@@]3(C)CC[C@H]4[C@H](C)CC[C@@H]1[C@@]24OO3 [Compound 303] | EC50 | 46.4 nM |
| C[C@H]1[C@@H](O[C@H]2C[C@@H](C(=O)N[C@H](C(=O)O)c3ccc(C(F)(F)F)cc3)C2)O[C@@H]2O[C@@]3(C)CC[C@H]4[C@H](C)CC[C@@H]1[C@@]24OO3 [Compound 257] | EC50 | 3210 nM |

As a next step, examine the compound that follows.
Given the entry C[C@H]1[C@@H](O[C@H]2CC[C@@H](C(=O)N3CC(C(=O)O)C3)CC2)O[C@@H]2O[C@@]3(C)CC[C@H]4[C@H](C)CC[C@@H]1[C@@]24OO3 [Compound 259] , what EC50 was observed with HL-60?
172 nM
